test: blockers of Ca2+-induced mitochondrial swelling – biochemical, isolated mouse mitochondria, absorbance, primary screen (AID 602449); details: 30 min, at 10 µM, hits give high values;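 note: 0% = DMSO wells given calcium and 100% = 1 mM EGTA wells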
The whole screen tested about 360,000 compounds, of which about 5,000 (1.4%) were called active. Only a selection was taken, and actives are over-represented in it overall.
OBSERVED PROPERTY: inhibition (%)
Expressed in %, but write only the number.

These recorded examples may help you get a feel for the data.
1. O=C(Nc1ccc2c(c1)OCCO2)c1ccc(Cl)c(S(=O)(=O)N2CCCCC2)c1 :: 9
2. C/C(CC(=O)Nc1cccc(C(F)(F)F)c1)=N\NC(=O)C(=O)NCC(C)C :: -0.9

Name the recorded inhibition for O=C(Nc1cccc(S(=O)(=O)Nc2ccc(Cl)cc2)c1)c1ccc2c(c1)OCCO2 .
77.8

And what about the compound S=C(Nc1cccc(Cl)c1)Nc1ccc2c(c1)OCCO2 ?
53.6

And what about the compound COc1ccccc1C(=O)Nc1ccc(Nc2ccccc2)cc1 ?
0.9

* * *

assay: blockers of Ca2+-induced mitochondrial swelling – biochemical, isolated mouse mitochondria, absorbance, primary screen (AID 602449); settings: 30 min, at 10 µM, hits give high values;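 note: 0% = DMSO wells given calcium and 100% = 1 mM EGTA wells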
The campaign covered roughly 360,000 compounds. About 5,000 (1.4%) were called active. Shown is part of a subset that was picked to be rich in actives.
// reported inhibition for each item listed
Expressed in %, but write only the number.

These recorded examples may help you get a feel for the data.
1) C[C@@H](CN1CCC[C@H]1CN1C(N)=NC[C@@H]1Cc1ccccc1)N1C[C@@H](Cc2ccccc2)N(CCCC2CCCC2)C1=N :: 73.7
2) O=C(NCc1ccccc1Cl)NC(=O)c1csc([N+](=O)[O-])c1 :: 1
3) CC(=O)Nc1ccc(CC#N)cc1 :: 2.1
4) O=C(Nc1ccccc1)c1ccccc1Br :: -0.9
5) CC1CCCCC1NCC(=O)Nc1ccccc1C(=O)Nc1ccccc1 (stereo not given) :: 1.8

Name the recorded inhibition for CC(C)NS(=O)(=O)c1ccc(NC(=O)c2cccnc2)cc1 .
-1.5

And what about the compound COc1cc(Cl)c(C)cc1NC(=O)CSc1nnc(CN2CCCC2)o1 ?
-2

* * *

// reported inhibition for each item listed
experiment: blockers of Ca2+-induced mitochondrial swelling – biochemical, isolated mouse mitochondria, absorbance, primary screen (AID 602449); conditions: 30 min, at 10 µM, hits give high values;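 note: 0% = DMSO wells given calcium and 100% = 1 mM EGTA wells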
Hit rate of the full screen: of about 360,000 compounds, about 5,000 (1.4%) were called active. Shown is part of a subset that was picked to be rich in actives.
Expressed in %, but write only the number.

1. CCCNC(=O)c1ccccc1NC(=O)CSCc1ccc(OC)cc1 :: 0
2. Cc1ccc(S(=O)(=O)NCc2nc3ccccc3c(=O)n2N)cc1 :: 1.2
3. Cc1ccc(-c2nc(COC(=O)c3c(C)noc3C)cs2)cc1 :: 88.5
4. COc1ccc(NC(=O)CCCN2C(=O)C(c3ccccc3)Oc3cccnc32)cc1 (stereo unspecified) :: 1.6
5. CC(C)=C1SC(N2CCN(c3ccc(C)c(Cl)c3)CC2)=NC1=O :: 2.6

Name the recorded inhibition for COc1cccc(CNS(=O)(=O)c2ccc3c(c2)CC(C)N3C(=O)C2CCC2)c1 (stereo unspecified) .
90.4

And what about the compound O=C(O)C(CCc1ccccn1)c1ccccc1 (stereo unspecified) ?
0.6
